Ref: patent US12435061B2

# target_desc: hTRPV3 (Homo sapiens (Human), UniProt Q8NET8)
# Sequence (Q8NET8 whole entry): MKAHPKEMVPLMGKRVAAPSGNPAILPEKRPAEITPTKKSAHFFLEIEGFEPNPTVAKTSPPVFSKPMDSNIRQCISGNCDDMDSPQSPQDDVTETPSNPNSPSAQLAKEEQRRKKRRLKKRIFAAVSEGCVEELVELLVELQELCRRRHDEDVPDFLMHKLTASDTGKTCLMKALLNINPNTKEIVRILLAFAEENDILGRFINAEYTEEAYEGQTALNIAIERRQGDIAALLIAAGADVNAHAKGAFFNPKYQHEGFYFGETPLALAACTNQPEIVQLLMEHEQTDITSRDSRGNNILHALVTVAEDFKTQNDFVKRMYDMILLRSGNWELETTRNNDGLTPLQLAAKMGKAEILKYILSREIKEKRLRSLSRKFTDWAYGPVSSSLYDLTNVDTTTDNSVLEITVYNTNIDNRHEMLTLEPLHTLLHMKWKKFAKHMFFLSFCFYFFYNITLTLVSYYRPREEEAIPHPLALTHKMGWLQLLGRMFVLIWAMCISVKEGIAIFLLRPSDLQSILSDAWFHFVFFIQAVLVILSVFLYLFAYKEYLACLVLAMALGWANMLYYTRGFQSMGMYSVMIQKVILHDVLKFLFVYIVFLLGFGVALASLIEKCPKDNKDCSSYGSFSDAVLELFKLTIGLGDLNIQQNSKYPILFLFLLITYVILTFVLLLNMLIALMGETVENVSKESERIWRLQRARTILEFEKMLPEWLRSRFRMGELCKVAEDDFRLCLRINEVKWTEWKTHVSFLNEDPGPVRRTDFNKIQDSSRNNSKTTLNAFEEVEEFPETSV
# method_description: Whole-cell patch clamp, hTRPV3 Phase 1 / Phase 2 currents
# Type: cell-based
# stated_conditions: Phase 1 current, inward, whole-cell patch clamp; read-out: hTRPV3 Patch P1 Inwd
measured_property: IC50

O=C(NCCO)c1cc(-c2ccccc2Cl)ccc1N1CC[C@H](Oc2ccc(C(F)(F)F)cn2)C1 [Compound 1-156] ... > 1000 nM

I need IC50 for every entry listed below, if you could help.
1. CCc1ccccc1-c1ccc(N2CC[C@H](Oc3ncccc3C)C2)c(CO)n1 [Compound 1-187]
2. CC(C)c1ccccc1-c1ccc(C2CCN(C(=O)c3ccc(Cl)cn3)C2)c(C(N)=O)c1 (stereo not shown) [Compound 2-35]
3. CC(C)(C)OC(=O)N1CCC(c2ccc(N3CC[C@H](Oc4ccc(C(F)(F)F)cn4)C3)c(CO)c2)CC1 [Compound 1-273]
4. CC(C)c1ccccc1Oc1ccc(C2CC(=O)N(Cc3ncccc3Cl)C2)c(CO)c1 (stereo not shown) [Compound 2-88]

Solution:
100 to 1000 nM
10 to 100 nM
> 1000 nM
100 to 1000 nM

====

I'd appreciate it if you could supply IC50 values for the items below.
# target_desc: hTRPV3 (Homo sapiens (Human))
# method_description: Whole-cell patch clamp, hTRPV3 Phase 1 / Phase 2 currents
# Assay type: cell-based
# stated_conditions: Phase 2 current, inward, whole-cell patch clamp; read-out: hTRPV3 Patch P2 Inwd
Where a name gives a salt, the structure may show the parent alone.

Use these answered entries as a reference point.
Cc1ccccc1-c1ccc(N2CC[C@H](Oc3ccc(C(F)(F)F)cn3)C2)c(CCCO)c1 ... > 1000 nM
NCc1cc(-c2ccccc2)ccc1N1CC[C@H](Oc2ncccc2Cl)C1 [Compound 1-125, hydrochloride] ... > 1000 nM
CN(C)C(=O)c1ccccc1-c1ccc(N2CC[C@H](Oc3ccc(C(F)(F)F)cn3)C2)c(CO)c1 ... > 1000 nM

Here are 8 compounds. What values of IC50 were reported for them?
1. OCc1cc(-c2ccccc2)ccc1N1CC[C@H](Oc2ncccc2Cl)C1
2. CC(O)c1ccccc1-c1ccc(N2CC[C@H](Oc3ccc(C(F)(F)F)cn3)C2)c(CO)c1 (stereo partly shown)
3. COC(C)c1ccccc1Oc1ccc(N2CC[C@H](Oc3ccc(F)cn3)C2)c(CCO)c1 (stereo partly shown)
4. CC(=O)NCc1cc(-c2ccccc2Cl)ccc1N1CC[C@H](Oc2ccc(C(F)(F)F)cn2)C1
5. NC(=O)c1cc(-c2ccccc2)ccc1N1CC[C@H](Oc2ccc3cc(Cl)ccc3n2)C1
6. O=C(c1cccc(Cl)c1)c1ccc(CCO)c(N2CC[C@H](Oc3ncccc3Cl)C2)c1
7. O=C(c1ccc(F)cc1)c1ccc(N2CC[C@H](Oc3ncccc3Cl)C2)c(CCO)c1
8. NC(=O)c1ccc(O[C@H]2CCN(c3ccc(-c4ccccc4)cc3CO)C2)nc1

Solution:
1. 100 to 1000 nM
2. 100 to 1000 nM
3. 100 to 1000 nM
4. > 1000 nM
5. 100 to 1000 nM
6. 100 to 1000 nM
7. 100 to 1000 nM
8. > 1000 nM

Hi there! I need IC50 for each item below, if you can.
1. NC(=O)c1cc(Cc2ccccc2)ccc1N1CC[C@H](Oc2ncccc2Cl)C1
2. O=C(NCc1ccccc1)c1ccccc1N1CC[C@@H](Oc2ccc(C(F)(F)F)cn2)C1
3. CCc1ccccc1-c1ccc(N2CC[C@H](Oc3ccc(F)cn3)C2)c(CO)n1
4. N#Cc1cc(-c2ccccc2)ccc1N1CCC(Oc2ccc3ccccc3n2)C1=O (stereo not shown)

Solution:
1: 100 to 1000 nM; 2: > 1000 nM; 3: 100 to 1000 nM; 4: > 1000 nM

Exercise: Consider the compound CCc1cc(F)ccc1Oc1ccc(N2CC[C@H](Oc3ccccn3)C2)c(CO)c1 and give its measured IC50.
Solution: 10 to 100 nM

====

# target_desc: hTRPV3 (Homo sapiens (Human), UniProt Q8NET8)
# method_description: Whole-cell patch clamp, hTRPV3 Phase 1 / Phase 2 currents
# Assay type: cell-based
# stated_conditions: Phase 1 current, human TRPV3; read-out: hTRPV3 (nM) Phase 1
measured_property: IC50 (nM)
Numbers only, in nM.

Completed entries (count: 5):
Cc1ccc(C(=O)N2CCC(c3ccc(-c4ccccc4C(C)C)cc3CO)C2)nc1 (centres unmarked) ... 19.8
CCc1ccccc1Oc1ccc(C2CCN(C(=O)c3cccc(C)n3)C2)c(C(N)=O)c1 (centres unmarked) ... 4900
CC(C)c1ccccc1Oc1ccc(C2CCN(C(=O)c3ccc(F)cn3)C2)c(CO)c1 (centres unmarked) ... 29.7
CC(C)c1ccccc1-c1ccc(C2CCN(C(=O)c3cc(Cl)ccn3)C2)c(CO)c1 (centres unmarked) ... 25.7
CCc1ccccc1Oc1ccc(C2CCN(C(=O)c3ccccn3)C2)c(C(N)=O)c1 (centres unmarked) ... 2820

Okay, now this molecule:
Exercise: Given CC(C)c1ccccc1Oc1ccc(C2CCN(C(=O)c3cccc(Cl)n3)C2)c(CO)c1 (centres unmarked) , state its recorded IC50.
Solution: 62

====

# target_desc: hTRPV3 (Homo sapiens (Human))
# method_description: Whole-cell patch clamp, hTRPV3 Phase 1 / Phase 2 currents
# Format: cell-based
# stated_conditions: Phase 1 current; read-out: hTRPV3 (nM) (Phase 1)
Record form. Attribute: IC50. Fill in for each entry.

NC(=O)c1cc(-c2ccccc2)cnc1N1CC[C@H](Nc2ccc(C(F)(F)F)cn2)C1 ... > 3200 nM
Nc1cc(-c2ccccc2)ccc1N1CC[C@H](Oc2ccc3cc(Cl)ccc3n2)C1 ... > 3200 nM
O=C(NCCO)c1cc(-c2ccccc2)ccc1N1CC[C@H](Oc2ccc(C(F)(F)F)cn2)C1 ... 4420 nM
COCc1ccccc1Oc1ccc(N2CC[C@H](Oc3ncccc3C)C2)c(CCO)c1 ... 311 nM
OCCOc1cc(-c2ccccc2Cl)ccc1N1CC[C@H](Oc2ccc(C(F)(F)F)cn2)C1 ... 1120 nM

Here are 6 molecules. What values of IC50 were reported for them?
1. CCc1ccccc1C(=O)c1ccc(N2CC[C@H](Nc3ncccc3Cl)C2)c(CO)c1
2. COCc1ccc(C(=O)c2ccc(N3CC[C@H](Oc4ncccc4Cl)C3)c(CO)c2)cc1
3. COCc1ccccc1Oc1ccc(N2CC[C@H](Oc3ncccc3F)C2)c(CCO)c1
4. NC(=O)c1cc(-c2ncc[nH]2)ccc1N1CC[C@@H](Oc2ccc(C(F)(F)F)cn2)C1
5. CC(C)c1ccccc1Oc1ccc(N2CC[C@H](Oc3ccccn3)C2)c(CO)c1
6. OCc1ccc(Oc2ccccc2Cl)cc1N1CC[C@H](Oc2ncccc2Cl)C1

Solution:
495 nM
607 nM
461 nM
> 1000 nM
7.77 nM
~72.5 nM

For every record below, what is its IC50?
1. NC(=O)c1cc(-c2ccccc2Cl)ccc1N1CCC(Oc2ccc3ccccc3n2)C1=O (stereo not shown)
2. Cc1ccccc1Oc1ccc(N2CC[C@H](Oc3ncccc3Cl)C2)c(CO)c1
3. CCOC(=O)c1nc(-c2ccccc2)sc1N1CC[C@H](Oc2ccc(C(F)(F)F)cn2)C1

Solution:
1: ~3900 nM; 2: ~29 nM; 3: 2670 nM

Hi there! I need IC50 for each item below, if you can.
1. Cc1ccc(O[C@H]2CCN(c3ccc(-c4ncccc4C)cc3CO)C2)nc1
2. OCCOc1cc(-c2ccccc2)ccc1N1CC[C@@H](Oc2ccc(C(F)(F)F)cn2)C1

Solution:
1: 3050 nM; 2: 1920 nM

====

Provide the recorded IC50 for the entries that follow.
# target_desc: UniProt Q8NET8
# method_description: Whole-cell patch clamp, hTRPV3 Phase 1 / Phase 2 currents
# Format: cell-based
# stated_conditions: read-out: hTRPV3 (nM) (Phase 2)
Where a name gives a salt, the structure may show the parent alone.

See these solved cases before continuing.
NC(=O)c1cc(C2=NCCN2)ccc1N1CC[C@@H](Oc2ccc(C(F)(F)F)cn2)C1 ... > 3200 nM
NC(=O)c1cc(C(F)(F)F)ccc1N1CC[C@H](Oc2ccc(C(F)(F)F)cn2)C1 ... 241 nM
NCc1cc(-c2ccccc2)ccc1N1CC[C@@H](Oc2ccc(C(F)(F)F)cn2)C1 [Compound 1-109, hydrochloride] ... 1930 nM
Cl.NC(=O)c1cc(-c2cccnc2)ccc1N1CC[C@@H](Oc2ncccc2Cl)C1 [Compound 1-74, hydrochloride] ... ~5040 nM
OCc1nc(Oc2ccccc2)ccc1N1CC[C@H](Oc2ccc(C(F)(F)F)cn2)C1 ... > 3200 nM

Exercise: Look at this molecule and give its reported IC50. NC(=O)c1cc(C(=O)c2ccccc2)ccc1N1CC[C@H](Oc2ncccc2Cl)C1
Solution: 1670 nM

====

# target_desc: hTRPV3 (Homo sapiens (Human), UniProt Q8NET8)
# method_description: Whole-cell patch clamp, hTRPV3 Phase 1 / Phase 2 currents
# Assay type: cell-based
# stated_conditions: Phase 1 current; read-out: hTRPV3 (nM) (Phase 1)
Returns: string. Value is condition met if measured IC50 is below 300 nM, and condition not met if it is greater than or equal to it.

The examples below pair each entry with its known result.
OCc1cc(-c2ccccn2)ccc1N1CC[C@H](Oc2ccc(C(F)(F)F)cn2)C1 ... condition not met
Cc1ccccc1Oc1ccc(N2CC[C@H](Nc3ncccc3Cl)C2)c(CO)c1 ... condition met
OCc1cc(-c2ccccc2)ccc1N1CC[C@H](Oc2ccc(C(F)(F)F)cn2)C1 ... condition met
O=C(NCCO)c1cc(-c2ccccc2Cl)ccc1N1CC[C@H](Oc2ccc(C(F)(F)F)cn2)C1 ... condition not met
CC(=O)c1ccc(Oc2ccc(N3CC[C@H](Oc4ccccn4)C3)c(CO)c2)c(F)c1 ... condition not met
CCc1ccccc1C(O)c1ccc(N2CC[C@H](Nc3ncccc3Cl)C2)c(CCO)c1 (stereo partly drawn) ... condition not met
Cc1ccc(O[C@H]2CCN(c3ccc(-c4ccccc4)cc3CO)C2)nc1 ... condition met
Cc1cccnc1O[C@H]1CCN(c2ccc(-c3ccccc3C#N)nc2CO)C1 ... condition not met
OCc1cc(Oc2ccccc2F)ccc1N1CC[C@H](Oc2ncccc2F)C1 ... condition met
O=C(c1ccc(F)cc1)c1ccc(N2CC[C@H](Oc3ncccc3Cl)C2)c(CCO)c1 [Compound 1-294] ... condition not met

Exercise: Lab note: confirm whether the reported IC50 for this molecule is below 300 nM, equality not counting. molecule: COCc1ccccc1Oc1ccc(N2CC[C@H](Oc3ccc(C)cn3)C2)c(CCO)c1
Solution: condition not met

Exercise: Same question for N#Cc1ccc(O[C@H]2CCN(c3ccc(-c4ccccc4)cc3CO)C2)nc1 please.
Solution: condition not met
